PROTOCOL CONDITIONS: inactive by the depositor's call
RESULT TYPE: EC50 (µM)

INSERT INTO measurements (molecular_string, observed) VALUES
  ('CCCCSc1ncc(C(=O)OCC)c(N)n1', 46.2),
  ('O=C(Nc1ccccc1)c1ccc2c(c1)OCCO2', 41.7),
  ('COc1ccc2c3c(cccc13)C(=O)N(O)C2=O', 41.6),
  ('CCCCNC(=S)Nc1ccc(-c2nc3ccc(C)cc3s2)cc1', 39.6);

====

PROTOCOL CONDITIONS: inactive by the depositor's call
# reported EC50; entries follow
RESULT TYPE: EC50 (µM)

INSERT INTO results (compound, result_type, observed) VALUES
  ('Cc1ccc2sc(NC(=O)CSc3nc(C)cc(C)c3C#N)nc2c1', 'EC50', 31.8),
  ('Nc1nc(-c2ccc3ccccc3c2)cs1 [4-(2-naphthalenyl)-2-thiazolamine]', 'EC50', 35.5),
  ('CCOC(=O)c1nn(-c2ccc(C)cc2)cc1C(=O)c1ccccc1', 'EC50', 36.7),
  ('Oc1ccc(CN2CCCCC2)c2cccnc12 [5-(1-piperidinylmethyl)-8-quinolinol]', 'EC50', 53.8),
  ('COc1nc(-c2ccccc2)nnc1-c1ccccc1', 'EC50', 38.9),
  ('O=C1CCCc2nc(N3CCc4ccccc43)ncc21', 'EC50', 84.7),
  ('Cn1nnc(-c2ccc(OCc3ccccc3F)cc2)n1', 'EC50', 69.3),
  ('CCCNC(=O)c1noc2c1CCc1cc(OC)ccc1-2', 'EC50', 39.9),
  ('S=C(c1ccc(-c2cccc(Cl)c2)o1)N1CCOCC1 [MLS000107692]', 'EC50', 89.6),
  ('Nc1ccccc1C(=O)/C=C/c1ccc2c(c1)OCO2', 'EC50', 55.6),
  ('Brc1ccccc1OCCCn1cnc2ccccc21', 'EC50', 62.3),
  ('O=C(Nc1ccc2c(c1)CCC2)c1cccc(F)c1 [3-fluoro-N-indan-5-yl-benzamide]', 'EC50', 50.2),
  ('COc1ccc2c(c1OC)C(=O)N(c1cccc(C(F)(F)F)c1)C2', 'EC50', 69.9),
  ('Cc1ccc(NC(=O)c2noc3c2CCCCC3)cc1 [MLS000087401]', 'EC50', 33.6),
  ('CCOc1ccc(C(=O)Nc2cccc(C(=O)O)c2)cc1Cl', 'EC50', 47.8),
  ('Cc1cccc(-c2cc(N)n(-c3ccccc3)n2)c1', 'EC50', 80.1),
  ('COc1ccc(-c2cn3cc(C(F)(F)F)cc(Cl)c3n2)cc1', 'EC50', 64.2),
  ('COc1ccc(C(=O)Oc2c(CN3CCOCC3)cc(Cl)c3cccnc23)cc1', 'EC50', 46.5),
  ('Fc1ccc(NC(=S)Nc2nccs2)cc1', 'EC50', 35.6),
  ('Cc1ccnc(NC(=O)c2cc3ccccc3oc2=O)c1', 'EC50', 47.2),
  ('c1ccc(CSc2ccc(-c3ccccn3)nn2)cc1 [3-(benzylthio)-6-(2-pyridyl)pyridazine]', 'EC50', 45.1),
  ('CC(C)=CC(=O)Nc1ccc(Br)cc1 [N-(4-bromophenyl)-3-methylbut-2-enamide]', 'EC50', 46.4),
  ('NC(=O)Cc1ccc2sc(-c3ccccc3)nc2c1', 'EC50', 36.5);

====

PROTOCOL CONDITIONS: inactive by the depositor's call
# reported EC50; entries follow
RESULT TYPE: EC50 (µM)

INSERT INTO results (compound, result_type, observed) VALUES
  ('Cc1ccn2c(c1)nc(=S)n2C(=O)c1ccco1', 'EC50', 56.4),
  ('Cc1ccc(OCc2nnc(-c3ccccn3)[nH]2)cc1', 'EC50', 78.8),
  ('Nc1c(-c2ccccc2)cnn1-c1ccc(C(=O)O)cc1', 'EC50', 46.2),
  ('CN(C)/C=N/c1ccc2nn(-c3ccccc3)nc2c1', 'EC50', 42.9),
  ('COc1ccc(C2=NOC(CN3C(=O)c4ccccc4S3(=O)=O)C2)cc1 (stereo unspecified)', 'EC50', 55),
  ('O=c1oc(-c2ccccc2)nc2sc3c(c12)CCCC3', 'EC50', 69.5),
  ('Cc1cccc(NC(=O)c2ccc3ccccc3n2)c1C', 'EC50', 84.4),
  ('COc1ccc(C2=Nc3ccccc3OC2)cc1', 'EC50', 45.6),
  ('COc1ccc(OC(=O)c2cnn(-c3ccccc3)c2C)cc1', 'EC50', 49.5),
  ('NC(=NOC(=O)COc1ccccc1Cl)c1ccccn1', 'EC50', 39.1),
  ('CCn1cnc2sc(-c3ccccc3)cc2c1=O', 'EC50', 35.2);
